Tested on: Escherichia coli TOP10;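 also: peptides expressed intracellularly from a pBAD plasmid library in pooled LB shake-flask culture, induced with 0.3% L-arabinose, DNA abundance read by NGS, three biological replicates, DESeq2 with apeglm shrinkage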
Assay: shrunken log2 fold change of peptide-encoding DNA abundance (4.5 h post-induction vs induction); higher = less antimicrobial activity (less host growth inhibition)
Settings: time post-induction: 4.5 h; library: site-saturation at positions 5, 18, 19, 20
Everything with shrunken log2 fold change lower than 0.04 is N; everything else, including exactly 0.04, is Y.

>>> group("RRIRWRPPRLPRPRPRPGSLPRP")
"N"
>>> group("RRIRVRPPRLPRPRPRPPRQPRP")
"Y"
>>> group("RRIRVRPPRLPRPRPRPSFAPRP")
"Y"
>>> group("RRIRERPPRLPRPRPRPVAVPRP")
"N"
>>> group("RRIRYRPPRLPRPRPRPCMMPRP")
"N"
>>> group("RRIRPRPPRLPRPRPRPFCDPRP")
"N"
>>> group("RRIRDRPPRLPRPRPRPMDAPRP")
"Y"
>>> group("RRIRPRPPRLPRPRPRPAPSPRP")
"Y"
>>> group("RRIRPRPPRLPRPRPRPFNPPRP")
"N"
>>> group("RRIRPRPPRLPRPRPRPFYEPRP")
"N"
>>> group("RRIRDRPPRLPRPRPRPIPSPRP")
"Y"
>>> group("RRIRGRPPRLPRPRPRPDARPRP")
"Y"
>>> group("RRIRGRPPRLPRPRPRPVKKPRP")
"Y"

These entries and their values trace back to the supplement of paper PMC9112550.
